Target: HLA-A*02:12
Assay: IEDB peptide-MHC binding, purified MHC/direct/fluorescence; filed as Kd, often an IC50 or EC50 that approximates it; bounds were set here for any values at or beyond the usual limits of such assays
Details: source organism: Giardia lamblia ATCC 50803
measureName: Kd (nM)
Answer with a number only, understood to be in nM.

Can you look up the measured Kd of `GMNPYHLAA` for me?
296

---

Target: HLA-A*03:01
Assay: IEDB peptide-MHC binding, purified MHC/direct/fluorescence; filed as Kd, often an IC50 or EC50 that approximates it; bounds were set here for any values at or beyond the usual limits of such assays
Conditions: source organism: Orthohantavirus hantanense
measureName: Kd

Param readout = Kd; param system = HLA-A*03:01; param query = `IRKPKHLYV` ; response: value
≥ 20 µM

---

Target: HLA-A*31:01
Test: IEDB peptide-MHC binding, purified MHC/direct/fluorescence; filed as Kd, often an IC50 or EC50 that approximates it; bounds were set here for any values at or beyond the usual limits of such assays
Conditions: source organism: Vibrio cholerae
pKd: −log10 of the molar value.
measureName: pKd

Param readout = pKd; param system = HLA-A*31:01; param query = `TTILGLLPM` ; response: value
≤ 4.70

---

Please go through the items and note down their Kd.
Target: HLA-B*15:01
Assay: IEDB peptide-MHC binding, purified MHC/competitive/radioactivity; filed as Kd, often an IC50 or EC50 that approximates it; bounds were set here for any values at or beyond the usual limits of such assays
Settings: source organism: Dengue virus 4 Philippines/H241/1956
Answer with a number only, understood to be in µM.

Can you look up the measured Kd of `LVKRFSTGLF` for me?
0.256

Can you look up the measured Kd of `LAMTDTTPF` for me?
0.00392

---

Molecular target: HLA-A*11:01
Test: IEDB peptide-MHC binding, purified MHC/direct/fluorescence; filed as Kd, often an IC50 or EC50 that approximates it; bounds were set here for any values at or beyond the usual limits of such assays
Settings: source organism: Aggregatibacter actinomycetemcomitans
pKd: −log10 of the molar value.
measureName: pKd

Can you look up the measured pKd of `RSEVELCIY` for me?
≤ 4.70

---

Molecular target: HLA-A*11:01
Assay: IEDB peptide-MHC binding, purified MHC/competitive/radioactivity; filed as Kd, often an IC50 or EC50 that approximates it; bounds were set here for any values at or beyond the usual limits of such assays
Settings: source organism: Vaccinia virus WR
Please go through the items and note down their pKd.
Convention used: pKd is expressed as -log10 of the molar concentration.

Can you look up the measured pKd of `NMINKLYGY` for me?
4.73

Can you look up the measured pKd of `MSRGYFEHMK` for me?
8.14

Can you look up the measured pKd of `IILANERYR` for me?
5.18

Can you look up the measured pKd of `LARRPTPKK` for me?
6.37

Can you look up the measured pKd of `GINNVQSLIK` for me?
7.76

Can you look up the measured pKd of `DLTQIFEVY` for me?
6.33

Can you look up the measured pKd of `MVIENGILKK` for me?
7.91

Can you look up the measured pKd of `TVKMGAFMY` for me?
7.60

Can you look up the measured pKd of `ALDGTFQRK` for me?
7.52

Can you look up the measured pKd of `QQFANVISK` for me?
8.62

Can you look up the measured pKd of `DFWRLYNSLK` for me?
6.00

Can you look up the measured pKd of `LVTRKCPQKK` for me?
4.80

Can you look up the measured pKd of `TTLLNETAK` for me?
7.88

Can you look up the measured pKd of `ATDYIASGQR` for me?
7.14

Can you look up the measured pKd of `MSRVRISLIY` for me?
6.26

Can you look up the measured pKd of `GMNDYLGIFK` for me?
8.37

Can you look up the measured pKd of `KAGNILFWPY` for me?
6.44

Can you look up the measured pKd of `YTISSESLVY` for me?
7.50

Can you look up the measured pKd of `STSAADIKR` for me?
7.88

Can you look up the measured pKd of `CSRMLDTSEK` for me?
5.79

Can you look up the measured pKd of `RLFRSPQVK` for me?
6.15

Can you look up the measured pKd of `LISLNSMYTR` for me?
7.64

Can you look up the measured pKd of `SIHLTKTDK` for me?
8.03

Can you look up the measured pKd of `VFKGFSDKVR` for me?
5.58

Can you look up the measured pKd of `MTLDDLAIK` for me?
7.43

Can you look up the measured pKd of `GAAVTLNRIK` for me?
5.98

Can you look up the measured pKd of `QLLKILDNLR` for me?
4.82

Can you look up the measured pKd of `CANGWIQYDK` for me?
6.22

Can you look up the measured pKd of `LLNETAKVIK` for me?
6.64

Can you look up the measured pKd of `SVSAKQLRTR` for me?
7.04

Can you look up the measured pKd of `TSLAIKNYY` for me?
6.53

Can you look up the measured pKd of `FMVSVSDFR` for me?
6.31

Can you look up the measured pKd of `VLEIINDKGK` for me?
5.60

Can you look up the measured pKd of `LMYALEPRK` for me?
7.27

Can you look up the measured pKd of `STQSVLCVKK` for me?
9.80

Can you look up the measured pKd of `DTSASEIKDR` for me?
5.95

Can you look up the measured pKd of `VSDLYTSMR` for me?
5.33

Can you look up the measured pKd of `PTKRCRLLK` for me?
5.98

Can you look up the measured pKd of `DTSYYVKEY` for me?
4.84

Can you look up the measured pKd of `LLKILDNLR` for me?
6.20

Can you look up the measured pKd of `TIISEEYLSK` for me?
8.76

Can you look up the measured pKd of `GVIDTMRIY` for me?
7.07

Can you look up the measured pKd of `LFSKNILKY` for me?
5.22

Can you look up the measured pKd of `NVTLFYCDER` for me?
5.55

Can you look up the measured pKd of `HLTKTDKKY` for me?
5.71

Can you look up the measured pKd of `IIDAKNDDWK` for me?
4.80

Can you look up the measured pKd of `IPFIAYFVLM` for me?
5.34

Can you look up the measured pKd of `VILFIMFMLI` for me?
6.45

Can you look up the measured pKd of `EVRIPVDLVK` for me?
5.78

Can you look up the measured pKd of `KAMLYIIRR` for me?
7.84

Can you look up the measured pKd of `TTYDFLARK` for me?
9.40

Can you look up the measured pKd of `LMWNKQFIK` for me?
8.59

Can you look up the measured pKd of `FAYVMNIER` for me?
7.18

Can you look up the measured pKd of `MTLVPVLEKK` for me?
9.33

Can you look up the measured pKd of `SVSIILANER` for me?
7.11
